Reported TGI values follow for various molecules
# Test system: OVCAR-4 ovarian
# METHOD: NCI tumour cell line growth inhibition, 48 h
Supply the numeric figure in µM, leaving out any unit text.

{"MOLECULE": "COc1cc(-c2ccc[nH]2)[nH]c1/C=C1\\N=C(C)C(CC(=O)OCC(C)(C)C)=C1C", "TESTED ON": "OVCAR-4 ovarian", "METRIC": "TGI", "RESULT NUMBER": 2.06}

Query (molecule): COc1ccc2nc3ccccc3c(NCCNCC(C)O)c2c1 (centres undefined) ; field requested: TGI 4.45

Query (molecule): CC/C=C\C[C@H]1C/C=C2/C(=O)C(Cl)=C[C@@H]2C/C=C\CCCC(=O)O1 ; field requested: TGI 4.9

Query (molecule): COc1ccc2nc3ccccc3c(NCCCCN(CCCl)CCCl)c2c1 ; field requested: TGI 0.542

Query (molecule): O=C1C(Cl)=C(NCCCN(CCCNC2=C(Cl)C(=O)c3ccccc3C2=O)C2=C(Cl)C(=O)c3ccccc3C2=O)C(=O)c2ccccc21 ; field requested: TGI 2.85

Query (molecule): CN1CCN(c2ccc(NC3=CC(=O)c4ncncc4C3=O)cc2)CC1 ; field requested: TGI 0.28

Query (molecule): COc1ccc(/C=C/c2ccnc3ccccc23)cc1OC ; field requested: TGI 24.8

Query (molecule): COc1cc(C(=O)O[C@H](C(=O)NCCCCNC(=O)[C@@H](OC(=O)c2cc(OC)cc3c(C)cccc23)[C@]2(C)CO2)[C@]2(C)CO2)c2cccc(C)c2c1 ; field requested: TGI 2.08

Query (molecule): CSc1ccc(C(=O)/C=C/c2ccc(Cl)cc2Cl)cc1 ; field requested: TGI 77.2
